meta.source: paper PMC12668289

Target: Fluc (Photinus pyralis, UniProt P08659)
Sequence (P08659 whole entry): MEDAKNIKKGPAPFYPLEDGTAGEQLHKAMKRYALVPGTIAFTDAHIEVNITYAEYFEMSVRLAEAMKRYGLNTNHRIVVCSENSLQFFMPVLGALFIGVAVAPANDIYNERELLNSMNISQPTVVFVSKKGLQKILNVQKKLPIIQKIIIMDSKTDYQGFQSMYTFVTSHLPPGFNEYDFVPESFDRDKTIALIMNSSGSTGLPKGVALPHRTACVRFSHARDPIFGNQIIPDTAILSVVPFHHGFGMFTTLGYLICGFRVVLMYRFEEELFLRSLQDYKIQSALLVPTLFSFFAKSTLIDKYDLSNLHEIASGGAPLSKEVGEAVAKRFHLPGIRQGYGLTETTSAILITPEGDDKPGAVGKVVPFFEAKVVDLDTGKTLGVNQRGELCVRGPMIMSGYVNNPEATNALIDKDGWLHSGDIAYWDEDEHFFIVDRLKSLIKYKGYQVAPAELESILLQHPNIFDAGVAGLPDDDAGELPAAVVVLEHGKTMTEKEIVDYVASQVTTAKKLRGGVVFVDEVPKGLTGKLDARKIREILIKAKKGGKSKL
Assay: biochemical
Format: binding
Conditions: ITC
Provide the recorded N site for the entries that follow.
One number for each entry.

Use these answered entries as a reference point.
O=C(O)[C@H]1CSC(c2nc3ccc(O)cc3s2)=N1 [Compound 2a, D-luciferin, reference compound]
1.00
Cc1cc2nc(C3=N[C@@H](C(=O)O)CS3)sc2cc1O [Compound 2b, 5’-methyl-D-luciferin]
0.70
COc1cc2nc(C3=N[C@@H](C(=O)O)CS3)sc2c(OC)c1O [Compound 2d, 5′,7′-dimethoxy-D-luciferin]
0.42

Consider the additional compound presented here.
Item Cc1cc2nc(C3=N[C@@H](C(=O)O)CS3)sc2c(C)c1O [Compound 2c, 5’,7’-di-methyl-D-luciferin] has what recorded N site? 0.80

----------
Provide the recorded Relative kcat for the entries that follow.
Test system: Pmluc-N230S
Experiment: Steady-state kinetics of luciferase reactions (luminometer)
Assay type: biochemical, Pyrocoelia miyako
Settings: Pmluc-N230S, relative to 2a compound
Answers are plain numbers.

Use these answered entries as a reference point.
Cc1cc2nc(C3=N[C@@H](C(=O)O)CS3)sc2cc1O [Compound 2b, 5’-methyl-D-luciferin]
518.5
Cc1cc2nc(C3=N[C@@H](C(=O)O)CS3)sc2c(C)c1O [Compound 2c, 5’,7’-di-methyl-D-luciferin]
48.1
Cc1cc(O)c(C)c2sc(C3=N[C@@H](C(=O)O)CS3)nc12 [Compound 2e, 4′,7′-dimethyl-D-LH2]
6.3

Consider the additional molecule presented here.
Item COc1cc2nc(C3=N[C@@H](C(=O)O)CS3)sc2c(OC)c1O [Compound 2d, 5′,7′-dimethoxy-D-luciferin] has what recorded Relative kcat? 0.2

----------
Test system: Pmluc-N230S
Test: Steady-state kinetics of luciferase reactions (luminometer)
Assay type: biochemical, Pyrocoelia miyako
Conditions: Pmluc-N230S, pH 8.0, 25 °C
Provide the recorded appKm for the entries that follow.

Use these answered entries as a reference point.
Cc1cc2nc(C3=N[C@@H](C(=O)O)CS3)sc2c(C)c1O
2.6 µM
COc1cc2nc(C3=N[C@@H](C(=O)O)CS3)sc2c(OC)c1O
13.3 µM

// each compound listed below needs its appKm
1. O=C(O)[C@H]1CSC(c2nc3ccc(O)cc3s2)=N1 [Compound 2a, D-luciferin, reference compound]
2. Cc1cc2nc(C3=N[C@@H](C(=O)O)CS3)sc2cc1O
3. Cc1cc(O)c(C)c2sc(C3=N[C@@H](C(=O)O)CS3)nc12

0.6 µM
1.8 µM
6.6 µM

----------
Test system: Pmluc-WT
Assay: Steady-state kinetics of luciferase reactions (luminometer)
Type: biochemical, Pyrocoelia miyako
Settings: pH 8.0, 25 °C
measurement type: appKm
A bare number is not enough; add the unit after it.

Use these answered entries as a reference point.
Cc1cc2nc(C3=N[C@@H](C(=O)O)CS3)sc2cc1O
0.4 µM
O=C(O)[C@H]1CSC(c2nc3ccc(O)cc3s2)=N1 [Compound 2a, D-luciferin, reference compound]
0.1 µM
COc1cc2nc(C3=N[C@@H](C(=O)O)CS3)sc2c(OC)c1O
0.2 µM
Cc1cc2nc(C3=N[C@@H](C(=O)O)CS3)sc2c(C)c1O
1.8 µM

Item Cc1cc(O)c(C)c2sc(C3=N[C@@H](C(=O)O)CS3)nc12 has what recorded appKm? 10.2 µM

----------
Biological target: Fluc (Photinus pyralis, UniProt P08659)
Experiment: Steady-state kinetics of luciferase reactions (luminometer)
Format: biochemical
Conditions: pH 8.0, 25 °C
measurement type: appKm (µM)
Give bare numbers, in µM.

Use these answered entries as a reference point.
Cc1cc2nc(C3=N[C@@H](C(=O)O)CS3)sc2cc1O
3.1
O=C(O)[C@H]1CSC(c2nc3ccc(O)cc3s2)=N1 [Compound 2a, D-luciferin, reference compound]
3.3
Cc1c(O)c2ccccc2c2nc(C3=N[C@@H](C(=O)O)CS3)sc12
2.7
COc1cc2nc(C3=N[C@@H](C(=O)O)CS3)sc2c(OC)c1O
0.2

// each compound listed below needs its appKm
1. Cc1cc(O)c(C)c2sc(C3=N[C@@H](C(=O)O)CS3)nc12
2. Cc1cc2nc(C3=N[C@@H](C(=O)O)CS3)sc2c(C)c1O

1: 7.1; 2: 2.5

----------
Provide the recorded pKd for the entries that follow.
Biological target: Fluc (Photinus pyralis)
Numbers only, as −log10 of the molar value.

Use these answered entries as a reference point.
Cc1cc2nc(C3=N[C@@H](C(=O)O)CS3)sc2c(C)c1O
4.45
COc1cc2nc(C3=N[C@@H](C(=O)O)CS3)sc2c(OC)c1O
4.52

Consider the additional compound presented here.
Fill in the recorded pKd for this compound, with Fluc (Photinus pyralis) as test system: Cc1cc2nc(C3=N[C@@H](C(=O)O)CS3)sc2cc1O 4.87

----------
System: Eluc
Experiment: Steady-state kinetics of luciferase reactions (luminometer)
Assay type: biochemical, Pyrearinus termitilluminans
Conditions: pH 8.0, 25 °C
Provide the recorded appKm for the entries that follow.
A bare number is not enough; add the unit after it.

Cc1cc2nc(C3=N[C@@H](C(=O)O)CS3)sc2c(C)c1O [Compound 2c, 5’,7’-di-methyl-D-luciferin]
3.5 µM
O=C(O)[C@H]1CSC(c2nc3ccc(O)cc3s2)=N1 [Compound 2a, D-luciferin, reference compound]
0.1 µM
Cc1c(O)c2ccccc2c2nc(C3=N[C@@H](C(=O)O)CS3)sc12 [Compound 2f, 7′-methylnaphthol-D-luciferin]
24.7 µM
COc1cc2nc(C3=N[C@@H](C(=O)O)CS3)sc2c(OC)c1O [Compound 2d, 5′,7′-dimethoxy-D-luciferin]
34.7 µM
Cc1cc2nc(C3=N[C@@H](C(=O)O)CS3)sc2cc1O [Compound 2b, 5’-methyl-D-luciferin]
0.7 µM

Consider the additional compound presented here.
Item Cc1cc(O)c(C)c2sc(C3=N[C@@H](C(=O)O)CS3)nc12 [Compound 2e, 4′,7′-dimethyl-D-LH2] has what recorded appKm? 19.1 µM

----------
Test system: Eluc
Experiment: BL emission spectra of luciferase-luciferin reactions
Type: biochemical, Pyrearinus termitilluminans
Conditions: 100 mM HEPES pH 8.0, 25 °C
Provide the recorded Bioluminescence wavelength (BLλ) for the entries that follow.
Numbers only, in nm.

Use these answered entries as a reference point.
COc1cc2nc(C3=N[C@@H](C(=O)O)CS3)sc2c(OC)c1O
596
Cc1cc2nc(C3=N[C@@H](C(=O)O)CS3)sc2c(C)c1O
573
Cc1cc2nc(C3=N[C@@H](C(=O)O)CS3)sc2cc1O
560
Cc1c(O)c2ccccc2c2nc(C3=N[C@@H](C(=O)O)CS3)sc12
557
Cc1cc(O)c(C)c2sc(C3=N[C@@H](C(=O)O)CS3)nc12
583

Consider the additional compound presented here.
Item O=C(O)[C@H]1CSC(c2nc3ccc(O)cc3s2)=N1 [Compound 2a, D-luciferin, reference compound] has what recorded Bioluminescence wavelength (BLλ)? 537

----------
Biological target: Fluc-ApCPP complex (Photinus pyralis, UniProt P08659)
Sequence (P08659 whole entry, one chain of several): as the sequence (P08659 whole entry) above
Test: biochemical
Settings: ITC, 25 °C, preformed Fluc-ApCPP complex; read-out: Dissociation constant (Kd) Fluc-ApCPP: Luciferin
measurement type: Kd
A bare number is not enough; add the unit after it.

Use these answered entries as a reference point.
Cc1cc(O)c(C)c2sc(C3=N[C@@H](C(=O)O)CS3)nc12 [Compound 2e, 4′,7′-dimethyl-D-LH2]
864 µM
Cc1cc2nc(C3=N[C@@H](C(=O)O)CS3)sc2c(C)c1O [Compound 2c, 5’,7’-di-methyl-D-luciferin]
25.3 µM

Consider the additional compound presented here.
Item Cc1cc2nc(C3=N[C@@H](C(=O)O)CS3)sc2cc1O [Compound 2b, 5’-methyl-D-luciferin] has what recorded Kd? 4 µM

----------
Provide the recorded Substrate inhibition for the entries that follow.
System: Pmluc-WT
Test: Steady-state kinetics of luciferase reactions (luminometer)
Format: biochemical, Pyrocoelia miyako
Settings: concentration range tested 0-300

Use these answered entries as a reference point.
O=C(O)[C@H]1CSC(c2nc3ccc(O)cc3s2)=N1 [Compound 2a, D-luciferin, reference compound]
> 4 µM
Cc1cc2nc(C3=N[C@@H](C(=O)O)CS3)sc2c(C)c1O [Compound 2c, 5’,7’-di-methyl-D-luciferin]
> 8.3 µM
Cc1cc2nc(C3=N[C@@H](C(=O)O)CS3)sc2cc1O [Compound 2b, 5’-methyl-D-luciferin]
> 2 µM

Consider the additional molecule presented here.
Item COc1cc2nc(C3=N[C@@H](C(=O)O)CS3)sc2c(OC)c1O [Compound 2d, 5′,7′-dimethoxy-D-luciferin] has what recorded Substrate inhibition? > 0.8 µM

----------
Tested on: Eluc
Experiment: Steady-state kinetics of luciferase reactions (luminometer)
Assay type: biochemical, Pyrearinus termitilluminans
Conditions: relative to 2a compound
measurement type: Relative kcat
Numbers only.

Cc1cc2nc(C3=N[C@@H](C(=O)O)CS3)sc2c(C)c1O
0.3
Cc1cc(O)c(C)c2sc(C3=N[C@@H](C(=O)O)CS3)nc12
0.2
Cc1c(O)c2ccccc2c2nc(C3=N[C@@H](C(=O)O)CS3)sc12
0.0

Consider the additional compound presented here.
Item COc1cc2nc(C3=N[C@@H](C(=O)O)CS3)sc2c(OC)c1O has what recorded Relative kcat? 0.1
